Where a name gives a salt, the structure may show the parent alone.
Quick rule for you: Undecomposed PAPS (%) under 60% gets Criterion met, anything else gets Criterion not met.

# compound, group
rows = [
    ("Nc1ncnc2c1ncn2[C@@H]1O[C@H](COP(=O)(O)OS(=O)(=O)O)[C@@H](OP(=O)(O)O)[C@H]1O [L-Lysine salt, 3′-phosphoadenosine 5′-phosphosulfate]", "Criterion met"),
    ("Nc1ncnc2c1ncn2[C@@H]1O[C@H](COP(=O)(O)OS(=O)(=O)O)[C@@H](OP(=O)(O)O)[C@H]1O [Piperidine salt, 3′-phosphoadenosine 5′-phosphosulfate]", "Criterion not met"),
    ("Nc1ncnc2c1ncn2[C@@H]1O[C@H](COP(=O)(O)OS(=O)(=O)O)[C@@H](OP(=O)(O)O)[C@H]1O [Ethylamine salt, 3′-phosphoadenosine 5′-phosphosulfate]", "Criterion met"),
    ("Nc1ncnc2c1ncn2[C@@H]1O[C@H](COP(=O)(O)OS(=O)(=O)O)[C@@H](OP(=O)(O)O)[C@H]1O [Trimethylamine salt, 3′-phosphoadenosine 5′-phosphosulfate]", "Criterion not met"),
    ("Nc1ncnc2c1ncn2[C@@H]1O[C@H](COP(=O)(O)OS(=O)(=O)O)[C@@H](OP(=O)(O)O)[C@H]1O [L-Arginine salt, 3′-phosphoadenosine 5′-phosphosulfate]", "Criterion met"),
]
